These entries and their values trace back to patent US20210169980A1.

Molecular target: T1, LGG-2 (C. elegans, UniProt Q23536 1-130, limits assumed)
T1 construct: also called worm orthologue of LC3
T1 sequence (looked up): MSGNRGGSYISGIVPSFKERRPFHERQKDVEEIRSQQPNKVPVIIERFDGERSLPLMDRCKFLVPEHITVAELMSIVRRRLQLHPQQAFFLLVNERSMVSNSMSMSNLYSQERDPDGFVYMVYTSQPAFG
Test: ITC (table of Kd values)
binders and their reported Kd
experimental_endpoint: Kd

1) PEDDWTRFSSEEIREARQAAASHAPS (also called AnkG ER; Glu1991Arg AnkG LIR) [AnkG E1991R (modified from rat 480 kD AnkG residues 1985-2010)]    8.47 µM
2) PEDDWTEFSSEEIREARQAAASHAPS [AnkG LIR (AnkG WT peptide, rat 480 kD AnkG residues 1985-2010)]    0.21 µM
